Entry source: PubChem BioAssay AID1645865

molecular target: Ubiquitin carboxyl-terminal hydrolase 30 (Homo sapiens) (UniProt Q70CQ3); assay: inhibitors of ubiquitin-specific protease 30 deubiquitylating enzyme, concentration dependence, in vitro biochemical, validation of primary hits (AID 1645865); conditions: purified USP30, Ub-rhodamine cleavage, fluorescence, 2 h
Sequence (Q70CQ3 whole entry, looked up): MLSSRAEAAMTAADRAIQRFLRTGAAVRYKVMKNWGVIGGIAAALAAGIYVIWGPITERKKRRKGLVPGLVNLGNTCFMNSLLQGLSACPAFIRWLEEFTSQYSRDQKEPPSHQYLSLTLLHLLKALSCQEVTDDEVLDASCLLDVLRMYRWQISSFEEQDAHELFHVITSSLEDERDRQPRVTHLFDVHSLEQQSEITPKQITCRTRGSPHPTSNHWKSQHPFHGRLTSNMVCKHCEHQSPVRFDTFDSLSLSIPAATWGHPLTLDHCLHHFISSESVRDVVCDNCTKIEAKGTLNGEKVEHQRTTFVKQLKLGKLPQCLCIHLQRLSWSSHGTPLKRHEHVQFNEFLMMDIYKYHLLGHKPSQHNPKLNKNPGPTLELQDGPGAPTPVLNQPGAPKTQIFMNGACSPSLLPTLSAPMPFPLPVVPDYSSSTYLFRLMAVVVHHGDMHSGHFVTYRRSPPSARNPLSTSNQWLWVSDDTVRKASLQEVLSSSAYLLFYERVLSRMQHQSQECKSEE
Calls of active or inactive are those of the source.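 Rule for the calls: active = maximal inhibition of the USP30 enzyme reaching 30% or more across the dose series; inactive = the rest.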
Would you mind answering with one of these outcomes? class 1 (active), class 0 (inactive)

Previously resolved entries follow.
COc1ccc(Cl)c(NC(=O)C2CC(=O)Nc3cc(-c4ccccc4)nn32)c1 (stereo not drawn) ... class 1
O=C(CN(Cc1ccc(Cl)cc1)S(=O)(=O)c1ccc(Cl)cc1)N1CCOCC1 ... class 0

With those in mind, consider the next compound.
**Q:** Could you please tell me the result logged for CCC(=O)Nc1ccc2c(c1)nc(CSc1nccc(C)n1)n2CC in this assay?
**A:** class 0

====

target: Ubiquitin carboxyl-terminal hydrolase 30 (Homo sapiens); experiment: inhibitors of ubiquitin-specific protease 30 deubiquitylating enzyme, concentration dependence, in vitro biochemical, validation of primary hits (AID 1645865); settings: purified USP30, Ub-rhodamine cleavage, fluorescence, 2 h
Activity calls are given as the source filed them.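 Rule for the calls: active = maximal inhibition of the USP30 enzyme reaching 30% or more across the dose series; inactive = the rest.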
Would you mind answering with one of these outcomes? TRUE for active, FALSE for inactive

Previously resolved entries follow.
Cc1nc2ccccc2nc1SCC(=O)Nc1ccc2c(c1)OCO2 ... TRUE
CC(C)(C)C(=O)C1C2C(=O)N(c3ccc4c(c3)OCO4)C(=O)C2C2c3ccccc3C=CN12 (centres undefined) ... FALSE
CC1(C(=O)NC2CCCC2)Cn2c(cc3ccccc32)C(=O)N1c1ccc(F)cc1 (centres undefined) ... FALSE

With those in mind, consider the next compound.
**Q:** Could you please tell me the result logged for CCOc1ccc(NC(=O)COc2cccc3c2CCN(CC)C3=O)cc1 in this assay?
**A:** FALSE

====

target: Ubiquitin carboxyl-terminal hydrolase 30 (Homo sapiens) (UniProt Q70CQ3); experiment: inhibitors of ubiquitin-specific protease 30 deubiquitylating enzyme, concentration dependence, in vitro biochemical, validation of primary hits (AID 1645865); conditions: purified USP30, Ub-rhodamine cleavage, fluorescence, 2 h
Active and inactive are the calls of the source.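 How the source made its calls: active means maximal inhibition of the USP30 enzyme reaching 30% or more across the dose series; inactive means the rest.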
Would you mind answering with one of these outcomes? active, inactive

O=C(CCc1ccc(S(=O)(=O)N2CCOCC2)cc1)Nc1ccc2c(c1)OCCO2 ... inactive
O=C(C(c1ccccc1)c1ccccc1)N1CCC(c2nc3c(nnn3Cc3c(F)cccc3Cl)c(=O)[nH]2)CC1 ... active
Cc1noc(-c2ccc(N3CCCC(C(=O)NCc4ccc(F)cc4)C3)nc2)n1 (stereo unspecified) ... active
O=C(Cn1c(=O)n(Cc2ccco2)c(=O)c2ccc(C(=O)NC3CCCC3)cc21)NCc1ccco1 ... inactive
COc1ccc(NS(=O)(=O)c2cc(NC(=O)CCc3nc4ccccc4s3)ccc2C)cc1 ... active

With those in mind, consider the next compound.
**Q:** Could you please tell me the result logged for O=C1c2ccccc2-n2c1nc1ccccc1c2=O in this assay?
**A:** inactive

====

molecular target: Ubiquitin carboxyl-terminal hydrolase 30 (Homo sapiens); assay: inhibitors of ubiquitin-specific protease 30 deubiquitylating enzyme, concentration dependence, in vitro biochemical, validation of primary hits (AID 1645865); conditions: purified USP30, Ub-rhodamine cleavage, fluorescence, 2 h;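 active means maximal inhibition of the USP30 enzyme reaching 30% or more across the dose series; inactive means the rest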
Would you mind answering with one of these outcomes? active, inactive

**Q:** Could you please tell me the result logged for CCC(C)NC(=O)Cn1c(=O)n(-c2ccccc2)c(=O)c2ccc(C(=O)NCc3ccco3)cc21 (configuration not stated) in this assay?
**A:** active

**Q:** Could you please tell me the result logged for COc1cc([C@@H]2c3cc4c(cc3C[C@@H]3COC(=O)[C@H]32)OCO4)cc(OC)c1OC in this assay?
**A:** active
